Tested on: OVCAR-5 complex spheroids with HUVEC/MSC, viability, % test/control
Assay: Anticancer human tumor OVCAR-5 cell line growth inhibition [AhR];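 note: spheroids exposed to compounds for 7 days; 100% = DMSO vehicle control wells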
Settings: second compound 3.16 µM; first compound 0.949 µM; stronger effect = lower value
Each entry below lists one item and its recorded viability, T/C value.
Numbers only; they are read as %.

Before answering, review these 5 worked examples.
1) CCN(c1cc(-c2ccc(CN3CCOCC3)cc2)cc(C(=O)NCc2c(C)cc(C)[nH]c2=O)c1C)C1CCOCC1 + Cc1cncc(-c2nc(NCCc3c[nH]c4ccccc34)c3ncn(C(C)C)c3n2)c1
72.7
2) O=C(C=Cn1cnc(-c2cc(C(F)(F)F)cc(C(F)(F)F)c2)n1)NNc1cnccn1 + Cc1ccccc1N=Nc1ccc(NC(=O)c2ccnn2C)c(C)c1
66.7
3) O=C(C=Cn1cnc(-c2cc(C(F)(F)F)cc(C(F)(F)F)c2)n1)NNc1cnccn1 + Cc1cncc(-c2nc(NCCc3c[nH]c4ccccc34)c3ncn(C(C)C)c3n2)c1
62
4) O=C(C=Cn1cnc(-c2cc(C(F)(F)F)cc(C(F)(F)F)c2)n1)NNc1cnccn1 + CC(CO)NC(=O)c1cc(-c2ccc(Cl)cc2)nn(-c2cnn(C)c2)c1=O
69.7
5) CCN(c1cc(-c2ccc(CN3CCOCC3)cc2)cc(C(=O)NCc2c(C)cc(C)[nH]c2=O)c1C)C1CCOCC1 + Cc1ccccc1N=Nc1ccc(NC(=O)c2ccnn2C)c(C)c1
109

Field: next compound
Find the measured viability, T/C: item CCN(c1cc(-c2ccc(CN3CCOCC3)cc2)cc(C(=O)NCc2c(C)cc(C)[nH]c2=O)c1C)C1CCOCC1 + CC(CO)NC(=O)c1cc(-c2ccc(Cl)cc2)nn(-c2cnn(C)c2)c1=O , target or system OVCAR-5 complex spheroids with HUVEC/MSC, viability, % test/control.
91.8
